protocol: in vitro
Format: cell-based, human
run.conditions: human, wild-type HK-2 cells (kidney proximal tubular), Cell viability, WT, Rep2
Residues, ends and D or L forms follow the SMILES beside them.
viability at 24 h for assorted compounds
Form entry: value (%) — number only.

As a guide, the following entries are already answered.
compound	test.value
CCCCCCCC(=O)N[C@@H](CCN)C(=O)N[C@H](C(=O)N[C@@H](CN)C(=O)N[C@H]1CCNC(=O)[C@H]([C@@H](C)O)NC(=O)[C@H](CCN)NC(=O)[C@H](CCN)NC(=O)[C@H](CC)NC(=O)[C@@H](CC(C)C)NC(=O)[C@H](CCN)NC1=O)[C@@H](C)O [Lipopeptide F287] (HELM PEPTIDE1{[CCCCCCCC(=O)[*:2]].[Dab].T.[NC[C@H](N[*:1])C(=O)[*:2]].[Dab].[Dab].[dL].[Abu].[Dab].[Dab].T}$PEPTIDE1,PEPTIDE1,5:R3-11:R2$$$V2.0)	54.3
CCCCCCCC(=O)N[C@@H](CCN)C(=O)N[C@H](C(=O)N[C@@H](CCN)C(=O)N[C@H]1CCNC(=O)[C@H]([C@@H](C)O)NC(=O)[C@H](CCN)NC(=O)[C@H](CCN)NC(=O)[C@H](CC)NC(=O)[C@@H](CC(C)C)NC(=O)[C@H](CCN)NC1=O)[C@@H](C)O [Lipopeptide F319] (HELM PEPTIDE1{[CCCCCCCC(=O)[*:2]].[Dab].T.[Dab].[Dab].[Dab].[dL].[Abu].[Dab].[Dab].T}$PEPTIDE1,PEPTIDE1,5:R3-11:R2$$$V2.0)	79.1

Now consider the entry below.
QUERY: What value of measured viability at 24 h is listed for CC[C@@H]1NC(=O)[C@@H](CC(C)C)NC(=O)[C@H](CCN)NC(=O)[C@@H](NC(=O)[C@H](CN)NC(=O)[C@@H](NC(=O)[C@H](CCN)NC(=O)c2ccc(Cl)cc2Cl)[C@@H](C)O)CCNC(=O)[C@H]([C@@H](C)O)NC(=O)[C@H](CCN)NC(=O)[C@H](CCN)NC1=O [Lipopeptide F365] (HELM PEPTIDE1{[O=C(c1ccc(Cl)cc1Cl)[*:2]].[Dab].T.[NC[C@H](N[*:1])C(=O)[*:2]].[Dab].[Dab].[dL].[Abu].[Dab].[Dab].T}$PEPTIDE1,PEPTIDE1,5:R3-11:R2$$$V2.0) ?
RESULT: 95.4
